target: Cytochrome P450 2C9 (Homo sapiens)
experimental.details: Cytochrome panel assay with activity outcomes
condition.summary: recombinant CYP, pro-luciferin dealkylation, luminescence, p450-cyp2c9; series mostly up to 57.1 µM
Screen size: about 16,000 compounds; about 4,000 (25%) were called active. About 26% were inconclusive and are not listed. Calls come from the whole dose curve; as a rule, active = well fitted curve in the direction sought with a large enough effect; inconclusive = small, poorly fitted or top-dose-only effect, or effect the other way; inactive = no such curve, though single readings can be large or run the other way. These entries were drawn from the full list.
Hello, when you answer, please use one of the following outcomes: active, inactive

Prompt line: # outcome recorded in this test, key = O=S(=O)(c1ccccc1)N1CCC2(CCCN(c3ncccn3)C2)CC1
Response line: active

Prompt line: Hello, I am checking results. What call was entered for Cn1c(CN2CCOCC2)nnc1SCc1ccccc1 ?
Response line: inactive

Prompt line: Tell me the assay call for CC1CCN(c2ccc(S(=O)(=O)Nc3cc(C(=O)O)cc(C(=O)O)c3)cc2[N+](=O)[O-])CC1 please.
Response line: active

Prompt line: Answer briefly: the call reported for CC1CCN(c2ccc(/C=N/n3nnnc3N)cc2[N+](=O)[O-])CC1 in this assay.
Response line: inactive

Prompt line: GET /call?item= O=S(=O)(c1ccccc1)N1CCC2(CCCN(c3ccccc3)C2)CC1 returns the recorded outcome of this test.
Response line: active

Prompt line: # fetch the recorded call for COC(=O)c1cc(NS(=O)(=O)c2ccc(N3CCCCC3)c([N+](=O)[O-])c2)cc(C(=O)OC)c1 here
Response line: active

Prompt line: State the result this test recorded for O=S(=O)(c1ccccc1)N1CCC[C@@]2(CCN(c3ccncc3)C2)C1 .
Response line: active

Prompt line: Which outcome was assigned to O=S(=O)(c1ccccc1)N1CCC2(CC1)CN(c1ncccn1)C2 in this test?
Response line: inactive

Prompt line: Tell me the assay call for COC(=O)c1cc(NS(=O)(=O)c2ccc(N3CCCCCC3)c([N+](=O)[O-])c2)cc(C(=O)OC)c1 please.
Response line: active

Prompt line: Assay outcome for CS(=O)(=O)N1CCC2(CCCN(c3ccccn3)C2)CC1 : what was it?
Response line: inactive

---

target: Cytochrome P450 2C9 (Homo sapiens) (UniProt P11712)
Sequence (P11712 whole entry, looked up): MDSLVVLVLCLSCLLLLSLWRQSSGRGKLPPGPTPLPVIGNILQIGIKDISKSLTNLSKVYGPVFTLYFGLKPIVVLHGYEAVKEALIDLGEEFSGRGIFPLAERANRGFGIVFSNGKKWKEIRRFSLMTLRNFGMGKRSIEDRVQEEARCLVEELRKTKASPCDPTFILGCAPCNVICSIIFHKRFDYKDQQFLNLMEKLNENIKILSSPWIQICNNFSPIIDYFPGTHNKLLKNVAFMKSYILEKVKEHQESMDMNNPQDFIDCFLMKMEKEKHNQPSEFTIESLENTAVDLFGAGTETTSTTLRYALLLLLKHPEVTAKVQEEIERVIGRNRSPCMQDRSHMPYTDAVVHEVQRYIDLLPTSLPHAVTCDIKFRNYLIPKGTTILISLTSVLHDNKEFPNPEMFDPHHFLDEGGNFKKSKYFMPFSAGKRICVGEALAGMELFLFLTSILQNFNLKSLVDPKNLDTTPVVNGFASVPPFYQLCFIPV
experimental.details: Cytochrome panel assay with activity outcomes
condition.summary: recombinant CYP, pro-luciferin dealkylation, luminescence, p450-cyp2c9; series mostly up to 57.1 µM
Experimental: The P450 gene superfamily is involved in the metabolism and clearance of xenobiotics. This assay used various human CYP P450 isozymes to measure the dealkylation of various pro-luciferin substrates to luciferin. The luciferin is then measured by luminescence after the addition of a luciferase detection reagent. […] Inhibitors and some substrates limit the production of luciferin, and decrease measured luminescence. […] 8, Detection, 1 sec, ViewLux luminescent read […]
In all, about 16,000 compounds went through this assay and about 4,000 (25%) were called active. Another 26% or so got no clear call; they are omitted. Not all results are given here.
measured.parameter: AC50

Would you please look over these solved cases?
INSERT INTO results (compound, target, reported_measurement) VALUES
  ('CCCCCCCCCCCCCCCC(=O)C(F)(F)F', 'Cytochrome P450 2C9 (Homo sapiens) (UniProt P11712)', 'inactive'),
  ('O=C(CSc1nc2ccccc2c(=O)n1CCCC(=O)N1CCCC1)NCc1ccco1', 'Cytochrome P450 2C9 (Homo sapiens) (UniProt P11712)', '7.08 µM (active)'),
  ('O=C(CSc1nc2ccccc2c(=O)n1Cc1ccccc1)NCc1ccco1', 'Cytochrome P450 2C9 (Homo sapiens) (UniProt P11712)', 'inactive'),
  ('O=c1c2ccccc2nc(SCc2ccccc2Cl)n1Cc1ccccc1', 'Cytochrome P450 2C9 (Homo sapiens) (UniProt P11712)', '1.26 µM (active)'),
  ('NCC[C@H]1CCC[C@H](CCN)N1', 'Cytochrome P450 2C9 (Homo sapiens) (UniProt P11712)', 'inactive'),
  ('CC1CCN(CCc2nc3cc(NC(=O)NC4CCCCC4)ccc3n2C)CC1', 'Cytochrome P450 2C9 (Homo sapiens) (UniProt P11712)', 'inactive');

Prompt line: Give the measured AC50 for CCCCOC(=O)c1cc2c(cn1)[nH]c1ccccc12
Response line: 7.94 µM (active)

Prompt line: Specify AC50 for CCNC(=O)COC(=O)c1cc(=O)[nH]c2ccccc12 and stop.
Response line: inactive

Prompt line: Fill in reported AC50 for this entry: Cn1c(CN2CCCC2)nc2cc(NC(=O)C3CCCCC3)ccc21
Response line: inactive

Prompt line: # return recorded AC50 for input CCCC1S/C(=N/N=C/c2ccc(OC)cc2)N(Cc2ccc(OC)cc2)C1=O (configuration not stated)
Response line: 15.8 µM (active)

Prompt line: Name the recorded AC50 of the compound listed here: CCCCOC(=O)c1ccc(O)cc1
Response line: inactive

Prompt line: Entry Cc1cccc(C)c1-n1c(SCC(=O)NCc2ccco2)nc2ccccc2c1=O needs its AC50 filled in; supply it.
Response line: 14.1 µM (active)
